Molecular target: human renin (Homo sapiens, UniProt P00797)
Construct: A human plasma pool is used as the source of both the substrate (angiotensinogen) and the enzyme (renin)
Assay: plasma renin assay (inhibition of human renin; angiotensin I generated, measured by radioimmunoassay)
Conditions: human plasma pool, pH 6.0, 2 h incubation at 37°
// returns false unless IC50 is strictly below 30 nM, in which case true

Challenge: Just wondering, is IC50 of CC(C)C[C@H](O)[C@H](O)[C@H](CC1CCCCC1)NC(=O)[C@@H](CC(=O)N(C)CC1(O)CCCCC1)Cc1cscn1 [Compound 30] below 30 nM?
Response given: true

Challenge: Similarly, CC(C)C[C@H](O)[C@H](O)[C@H](CC1CCCCC1)NC(=O)[C@@H](CC(=O)N(Cc1ccncc1)CC1(O)CCCCC1)CC1CC1 [Compound 29] ?
Response given: false

Challenge: Similarly, CC(C)C[C@H](O)[C@H](O)[C@H](CC1CCCCC1)NC(=O)[C@@H](CC(=O)N(Cc1ccco1)CC(C)(C)O)Cc1csc(N)n1 [Compound 55] ?
Response given: true

Challenge: Similarly, CC(C)C[C@H](O)[C@H](O)[C@H](CC1CCCCC1)NC(=O)[C@@H](CC(=O)N(CCO)CC1CCCCC1)CC1CC1 [Compound 31] ?
Response given: false

Challenge: Similarly, CC(C)C[C@H](O)[C@H](O)[C@H](CC1CCCCC1)NC(=O)[C@@H](CC(=O)NCC(O)c1ccccc1)CC1CC1 (stereo partly drawn) [Compound 10] ?
Response given: false

Challenge: Similarly, CC(C)C[C@H](O)[C@H](O)[C@H](CC1CCCCC1)NC(=O)[C@@H](CC(=O)N(CC(=O)N(C)C)CC1(O)CCCCC1)CC1CC1 [Compound 23] ?
Response given: true

====

Exercise: for every item that follows, state its recorded IC50.
Molecular target: human renin (Homo sapiens, UniProt P00797)
Construct: A human plasma pool is used as the source of both the substrate (angiotensinogen) and the enzyme (renin)
Sequence (P00797 67-406): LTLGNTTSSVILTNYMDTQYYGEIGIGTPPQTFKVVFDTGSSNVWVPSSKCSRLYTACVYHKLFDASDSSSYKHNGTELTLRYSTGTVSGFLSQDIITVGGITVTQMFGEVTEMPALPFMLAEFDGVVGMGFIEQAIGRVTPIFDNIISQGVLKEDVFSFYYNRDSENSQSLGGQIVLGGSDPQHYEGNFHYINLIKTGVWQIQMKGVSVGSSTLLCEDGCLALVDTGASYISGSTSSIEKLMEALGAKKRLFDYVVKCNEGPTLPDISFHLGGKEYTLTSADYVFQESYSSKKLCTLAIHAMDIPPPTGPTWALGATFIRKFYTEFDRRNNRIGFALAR
Assay: plasma renin assay (inhibition of human renin; angiotensin I generated, measured by radioimmunoassay)
Settings: human plasma pool, pH 6.0, 2 h incubation at 37°
Just the number in nM, nothing appended.

Challenge: What does the record list as IC50 for "CC(C)C[C@H](O)[C@H](O)[C@H](CC1CCCCC1)NC(=O)[C@@H](CC(=O)NC[C@H](O)c1ccccc1)CC1CC1" ?
Response given: 72

Challenge: Similarly, CC(C)C[C@H](O)[C@H](O)[C@H](CC1CCCCC1)NC(=O)[C@@H](CC(=O)N(CC(=O)N(C)C)CC(O)c1ccccc1)Cc1cscn1 (mixture of isomers) ?
Response given: 10

Challenge: Similarly, "CC(C)C[C@H](O)[C@H](O)[C@H](CC1CCCCC1)NC(=O)[C@@H](CC(=O)NCC1(O)CCCCC1)CC1CC1" ?
Response given: 94

Challenge: Similarly, "CC(C)C[C@H](O)[C@H](O)[C@H](CC1CCCCC1)NC(=O)[C@@H](CC(=O)N(CC(=O)N(C)C)CC1(O)CCCCC1)Cc1cscn1" ?
Response given: 1.6

Challenge: Similarly, "CC(C)C[C@H](O)[C@H](O)[C@H](CC1CCCCC1)NC(=O)[C@@H](CC(=O)N(C)CC1(O)CCCCC1)CC1CC1" ?
Response given: 38

Challenge: Similarly, "CC(C)C[C@H](O)[C@H](O)[C@H](CC1CCCCC1)NC(=O)[C@@H](CC(=O)N(CC1CCCCC1)CC(C)(C)O)CC1CC1" ?
Response given: 46

Values were extracted from patent US5523315A.
